Data provenance is patent US12522576B2.

test.description: D9 solubility in the liquors at isolation temperature
Type: physicochemical
applied.conditions: crystallisation liquors over suspended solid, 25 °C, organic solvent or mixture, thermodynamic from solid, batch 5, MeCN/MIBK (8:2), seed D, heat T 50, isolation T 25, SP 2, 3.2 mL/g
quantity.kind: solubility (mg/mL)
Field format: number, assumed mg/mL, no unit text.

Check the records and state solubility for CCCCCc1cc(OC(=O)c2ccc3ccccc3c2)c2c(c1)OC(C)(C)[C@@H]1CCC(C)=C[C@@H]21 [Form C]
25.5

----------
test.description: D9 solubility in the liquors at isolation temperature
Type: physicochemical
applied.conditions: crystallisation liquors over suspended solid, 25 °C, organic solvent or mixture, thermodynamic from solid, batch 5, n-BuOH, seed G, heat T 40, isolation T 25, SP 8, 10.0 mL/g
quantity.kind: solubility (mg/mL)
Please give a number only; it is taken to be in mg/mL.

Quick one: give measured solubility for CCCCCc1cc(OC(=O)c2ccc3ccccc3c2)c2c(c1)OC(C)(C)[C@@H]1CCC(C)=C[C@@H]21 [Form B]
16.7

----------
test.description: Visual solubility of Form B
Type: physicochemical
applied.conditions: organic solvent or mixture, thermodynamic from solid; solvent EtOH; 50° C.; read-out: Visual Solubility at 50° C.
quantity.kind: solubility

Look up and state reported solubility for CCCCCc1cc(OC(=O)c2ccc3ccccc3c2)c2c(c1)OC(C)(C)[C@@H]1CCC(C)=C[C@@H]21 [Form B]
25 to 50 mg/mL

----------
test.description: D9 solubility in the liquors at isolation temperature
Format: physicochemical
applied.conditions: crystallisation liquors over suspended solid, 5 °C, organic solvent or mixture, thermodynamic from solid, batch 5, MeCN/MeOH (9:1), seed D/G, heat T 50, isolation T 5, SP 6, 30.0 mL/g
quantity.kind: solubility
Answer format: value, then unit.

// fetch solubility given entry CCCCCc1cc(OC(=O)c2ccc3ccccc3c2)c2c(c1)OC(C)(C)[C@@H]1CCC(C)=C[C@@H]21 [Form C]
8400 µg/mL

----------
test.description: D9 solubility in the liquors at isolation temperature
Assay type: physicochemical
applied.conditions: crystallisation liquors over suspended solid, 25 °C, organic solvent or mixture, thermodynamic from solid, batch 5, Cyclohexanone/IPA (1:9), seed G/H, heat T 45, isolation T 25, SP 15, 2.5 mL/g
quantity.kind: solubility (mg/mL)
Could you give me the number in mg/mL? Just the number is fine.

Please report the measured solubility for CCCCCc1cc(OC(=O)c2ccc3ccccc3c2)c2c(c1)OC(C)(C)[C@@H]1CCC(C)=C[C@@H]21 [Form B]
59.2

----------
test.description: Visual solubility of Form B
Type: physicochemical
applied.conditions: organic solvent or mixture, thermodynamic from solid; solvent BuOH/MeOH (1:3); 50° C.; read-out: Visual Solubility at 50° C.
quantity.kind: solubility

Using known records, supply solubility for CCCCCc1cc(OC(=O)c2ccc3ccccc3c2)c2c(c1)OC(C)(C)[C@@H]1CCC(C)=C[C@@H]21 [Form B]
26 to 51 mg/mL
